- Tested on: BT20
- measurement-protocol: normalised growth rate inhibition (GR value) relative to DMSO control (GR (1 = untreated growth, 0 = cytostasis, <0 = cytotoxic)); higher = less growth inhibition
- experimental-context: 1.11 µM; 72 h
readout: normalised growth rate inhibition

Reported normalised growth rate inhibition ( Oc1cccc(-c2nc(N3CCOCC3)c3oc4ncccc4c3n2)c1 ) = 0.0983

Reported normalised growth rate inhibition ( Cc1ccc(F)c(NC(=O)Nc2ccc(-c3cccc4[nH]nc(N)c34)cc2)c1 ) = 1.08

Reported normalised growth rate inhibition ( CCn1c(-c2nonc2N)nc2c(C#CC(C)(C)O)ncc(OC[C@H]3CCCNC3)c21 ) = 0.521

----------
- Test system: MCF7
- measurement-protocol: normalised growth rate inhibition (GR value) relative to DMSO control (GR (1 = untreated growth, 0 = cytostasis, <0 = cytotoxic)); higher = less growth inhibition
- experimental-context: 1.11 µM; 72 h
Provide the recorded normalised growth rate inhibition for the entries that follow.
Answer with the value's number alone.

Reported normalised growth rate inhibition ( COc1cc(N2CCC(C(N)=O)CC2)ccc1Nc1nc(N)c(Cl)c(Nc2ccccc2S(=O)(=O)C(C)C)n1 ) = 0.364

Reported normalised growth rate inhibition ( Cc1[nH]c(/C=C2\C(=O)Nc3ccc(S(=O)(=O)N(C)c4cccc(Cl)c4)cc32)c(C)c1C(=O)N1CCN(C)CC1 ) = 0.858

Reported normalised growth rate inhibition ( O=C1c2c(O)ccc(O)c2C(=O)c2c(NCCNCCO)ccc(NCCNCCO)c21 ) = -0.141

Reported normalised growth rate inhibition ( N#CCNC(=O)c1ccc(-c2ccnc(Nc3ccc(N4CCOCC4)cc3)n2)cc1 ) = 0.628

----------
Provide the recorded normalised growth rate inhibition for the entries that follow.
- Test system: MCF7
- measurement-protocol: normalised growth rate inhibition (GR value) relative to DMSO control (GR (1 = untreated growth, 0 = cytostasis, <0 = cytotoxic)); higher = less growth inhibition
- experimental-context: 1.11 µM; 72 h
Answer with the value's number alone.

Reported normalised growth rate inhibition ( O=C(NOCC1CC1)c1ccc(F)c(F)c1Nc1ccc(I)cc1Cl ) = 0.646

Reported normalised growth rate inhibition ( C[C@@H](N)c1ccc(C(=O)Nc2ccnc3[nH]ccc23)cc1 ) = 0.905

Reported normalised growth rate inhibition ( CCCS(=O)(=O)Nc1ccc(F)c(C(=O)c2c[nH]c3ncc(-c4ccc(Cl)cc4)cc23)c1F ) = 1.01

Reported normalised growth rate inhibition ( CC(=O)Nc1nc(C)c(-c2ccc(Cl)c(S(=O)(=O)NCCO)c2)s1 ) = 0.88

----------
- Test system: HS578T
- measurement-protocol: normalised growth rate inhibition (GR value) relative to DMSO control (GR (1 = untreated growth, 0 = cytostasis, <0 = cytotoxic)); higher = less growth inhibition
- experimental-context: 0.37 µM; 72 h
readout: normalised growth rate inhibition
Answer with the value's number alone.

Reported normalised growth rate inhibition ( C[C@@H]1C[C@H]2O[C@@H]2/C=C\C=C\C(=O)Cc2c(Cl)c(O)cc(O)c2C(=O)O1 ) = 0.704

Reported normalised growth rate inhibition ( C=CC(=O)N1CCc2ccc(-n3c(=O)ccc4cnc5ccc(-c6cnn(C)c6)cc5c43)cc21 ) = 0.713

Reported normalised growth rate inhibition ( COc1cc2ncnc(-n3nc(-c4ccccn4)nc3N)c2cc1OC ) = 1.05

Reported normalised growth rate inhibition ( Cc1cc2c(F)c(Oc3ncnn4cc(OC[C@@H](C)O)c(C)c34)ccc2[nH]1 ) = 0.963

Reported normalised growth rate inhibition ( Cn1c(=O)n(-c2ccc(C(C)(C)C#N)cc2)c2c3cc(-c4cnc5ccccc5c4)ccc3ncc21 ) = 0.109

Reported normalised growth rate inhibition ( Cc1ccc2nc(NCCN)c3ncc(C)n3c2c1 ) = 0.99

Reported normalised growth rate inhibition ( FC(F)c1nc2ccccc2n1-c1nc(N2CCOCC2)nc(N2CCOCC2)n1 ) = 0.522

Reported normalised growth rate inhibition ( COC(=O)c1ccc2c(C(=Nc3ccc(N(C)C(=O)CN4CCN(C)CC4)cc3)c3ccccc3)c(O)[nH]c2c1 ) = 0.727
